- Test system: Plasmodium berghei
- PROCEDURE_DETAILS: Screen against P. berghei liver stage (PbLuc), transformed with Luciferase, at 10uM
- Assay type: functional, HepG2
- TEST_SETTINGS: tested at 10 uM
In all, about 69,000 compounds went through this assay and about 8,600 (12%) showed an effect of 50% or more. The sample holds strong results, similar compounds and a random draw of the others, so the mix is not that of the screen.
Some molecules, each annotated with its measured INHIBITION.
Expressed in %, but write only the number.

{"columns": ["MOLECULE", "VALUE_MEASURED"],
 "data": [
  ["O=C(c1ccccc1)N1CCC[C@]2(C[C@@H](OCc3ccncc3)CO2)C1", -13.7],
  ["CN(C)CCOCC1CN(Cc2ccsc2)Cc2ccnn2C1 (stereo not given)", 11.4],
  ["CNC(=O)[C@@H]1C[C@@H](NC(=O)c2cn(C)nc2C)CN1Cc1sccc1C", 25.8],
  ["CC(C)CN(Cc1ccccn1)Cc1ccccc1C(=O)O", 38.6],
  ["CN1CC(=O)N(c2cccc(F)c2)CC12CCN(S(=O)(=O)C1CC1)C2 (stereo not given)", 5.44],
  ["CCc1noc(CN2CCC(c3ccnn3CCO)CC2)n1", -19.4],
  ["Cc1cnc2n(c1=O)CC(C(=O)NC1CC1)CS2 (stereo not given)", -14.6],
  ["CC(C)N1c2sc(-c3ccccc3)nc2CC1C(=O)NC1CCCC1 (stereo not given)", 57.1],
  ["CC(C)CN(Cc1ccc(O)c(C(=O)O)c1)Cc1ccccn1", 43.9],
  ["CN(CCNC(=O)N1CCCC1)C(=O)OC(C)(C)C", -30.5]
]}

Data request: Quick check: INHIBITION of `CCN1CC2(CCC1=O)CCN(C(=O)c1cn3cccnc3n1)CC2` ?
Data returned: -13.6

Data request: Quick check: INHIBITION of Cc1nc[nH]c1CN1CCN(C2CCOCC2)CC(C(N)=O)C1 (stereo not given) ?
Data returned: 7.52

Data request: Quick check: INHIBITION of `Cc1cccc2c1NC1(CCCC1)NC2=O` ?
Data returned: 45.2

Data request: Quick check: INHIBITION of CC(C)N1c2sc(-c3ccsc3)nc2CC1C(=O)NC1CCCC1 (stereo not given) ?
Data returned: 47.5

Data request: Quick check: INHIBITION of `O=C(c1ccc2[nH]nnc2c1)N1C[C@H](O)[C@]2(CCCO2)C1` ?
Data returned: 4.41
